# System: Nrf2
# assay protocol: Evaluation of Nrf2 activation ability (Nrf2d-LacZ / Keap1 HEK293 reporter, Beta-Glo luminescence)
# Type: cell-based, human
# measurement context: rated A/B/C, Pharmacological Test Example 1
value type: EC50

Here is how some compounds turned out for EC50.
> print(dat)
                                   compound   reported
1  [O-][s+]1nc(O)cc1-n1cc(C2=CCC(F)(F)CC2)cn1 (stereo not shown) [Example 301]     < 1 µM
2  CN1C(=O)COc2nc(-c3ccc4c(cnn4-c4cc(O)n[s+]4[O-])c3)ncc21 (stereo not shown) [Example 218]  1 to 5 µM
3  [O-][s+]1nc(O)cc1-n1ncc2c(C3=CCC(F)(F)CC3)cccc21 (stereo not shown) [Example 93]  1 to 5 µM
4  CC(C)(C)OC(=O)N1Cc2cn(-c3cc(O)n[s+]3[O-])nc2C1 (stereo not shown) [Example 246]  1 to 5 µM
5  COCCN1CCOc2cc(-c3ccc4c(cnn4-c4cc(O)n[s+]4[O-])c3)cnc21 (stereo not shown) [Example 172]     < 1 µM

Enquiry: Need EC50, item [O-][s+]1nc(O)cc1-n1ncc2c1CN(Cc1cccc(Oc3ccccc3)c1)C2 (stereo not shown) [Example 264]
Return: 1 to 5 µM

Enquiry: Need EC50, item [O-][s+]1nc(O)cc1-n1ncc2c(-c3ccc(N4CCCC4)nc3)cccc21 (stereo not shown) [Example 107]
Return: 1 to 5 µM

Enquiry: Need EC50, item [O-][s+]1nc(O)cc1-n1ncc2cc(-c3cccc(CN4CCOCC4)c3)ccc21 (stereo not shown) [Example 77]
Return: < 1 µM
